# target_desc: T1, human GARP-TGF-β1 complex (recombinant complex of human GARP and latent human TGF-β1) (human, UniProt Q14392 20-627; P01137 30-278; P01137 279-390)
# T1 construct: also called huGARP-TGF-β1; hGARP-TGF-β1
# procedure_details: SPR Biacore T200, CM5 chip coated with GARP-TGF-β1 complex at 150 RU
reported_property: Kd

What value of Kd has been recorded for this entry: 39B6-A IgG4 S228P (antibody, V domains shown, 39B6 with G55A in HCDR2, in the human IgG4 S228P backbone; also called 39B6-ANE) VH: QVQLVQPGAEVRKPGASVKVSCKASGYRFTSYYIDWVRQAPGQGLEWMGRIDPEDAGTKYAQKFQGRVTMTADTSTSTVYVELSSLRSEDTAVYYCARNEWETVVVGDLMYEYEYWGQGTLVTVSS VL: DIQMTQSPSSLSASVGDRVTITCQASQSISSYLAWYQQKPGQAPKILIYGASRLKTGVPSRFSGSGSGTSFTLTISSLEPEDAATYYCQQYASVPVTFGQGTKVEIKR
0.991 nM
